system: Pseudomonas aeruginosa NCTC 10490; test: MIC against standard strains (Test Example 1); format: cell-based; settings: NCTC10490, Muller-Hinton agar, 37°C overnight
Counter-ions that a name gives are not always drawn.
metric: MIC (µg/mL)
State the answer as a number, implicitly in µg/mL.

Known results for compounds:
NC(=O)c1ccc[n+](CC2=C(C(=O)[O-])N3C(=O)[C@@H](NC(=O)/C(=N\O)c4csc(N)n4)[C@H]3SC2)c1 [Compound (1)] : 3.13
NC(=O)Nc1ccc[n+](CC2=C(C(=O)[O-])N3C(=O)[C@@H](NC(=O)/C(=N\O)c4csc(N)n4)[C@H]3SC2)c1 [Compound (4)] : 1.56

Exercise: Query MIC on Pseudomonas aeruginosa NCTC 10490 for Nc1ccc[n+](CC2=C(C(=O)[O-])N3C(=O)[C@@H](NC(=O)/C(=N\O)c4csc(N)n4)[C@H]3SC2)c1 [Compound (3), hydrochloride]
Solution: 3.13
